Tested on: A-431
assay: Antiproliferative activity against human A431 cells at 10 uM after 48 hrs by MTT assay
Assay type: functional
condition_label: A-431, 48 h
experimental_endpoint: inhibition at 10 µM (%)
Hi! Could you send only the number? It should be in %, unit omitted.

N[C@@H](Cc1ccc(O)cc1)C(=O)N[C@H](Cc1c[nH]c2ccccc12)C(=O)N[C@@H](CCCCNC(=O)OCc1ccccc1)C(=O)O :: 0
CC(C)(C)OC(=O)N[C@@H](Cc1ccc(O)cc1)C(=O)N[C@H](Cc1c[nH]c2ccccc12)C(=O)N[C@@H](CCCCNC(=O)OCc1ccccc1)C(=O)O :: 0

Attention now shifts to the item below.
Task: Given C[C@@H]1C[C@@H]([C@H](O)CC2CC(=O)NC(=O)C2)C(=O)[C@@H](C)C1 [CYCLOHEXIMIDE] , respond with its inhibition at 10 µM.
Output: 40

---

Tested on: A-431
assay: Antiproliferative activity against human A431 cells at 10 uM after 48 hrs by MTT assay
Type: functional
condition_label: A-431, 48 h
Where a SMILES comes first, the peptide text is derived from it. Bridges are numbered along the chain shown (N, C = ends). [ ]: non-standard residue; d: D form.
experimental_endpoint: inhibition at 10 µM (%)
Please respond with the number in % and leave the unit unwritten.

The examples below pair each entry with its known result.
N[C@@H](Cc1ccc(O)cc1)C(=O)N[C@H](Cc1c[nH]c2ccccc12)C(=O)O :: 0
C[C@@H](O)[C@H](NC(=O)[C@@H]1CSSC[C@H](NC(=O)[C@H](N)Cc2ccccc2)C(=O)N[C@@H](Cc2ccc(O)cc2)C(=O)N[C@H](Cc2c[nH]c3ccccc23)C(=O)N[C@@H](CCCCN)C(=O)N1)C(N)=O [TT-232] (H-[dF]CY[dW]KCT-NH2; disulfide 2-6) :: 50

Attention now shifts to the item below.
Task: Given `CC(C)(C)OC(=O)N[C@@H](Cc1ccc(O)cc1)C(=O)N[C@H](Cc1c[nH]c2ccccc12)C(=O)N[C@@H](CCCCNC(=O)OCc1ccccc1)C(=O)OCC1c2ccccc2-c2ccccc21` , respond with its inhibition at 10 µM.
Output: 2

---

System: A-431
assay: Antiproliferative activity against human A431 cells at 50 uM after 48 hrs by MTT assay
Type: functional
condition_label: A-431, 48 h
Where a SMILES comes first, the peptide text is derived from it. Bridges are numbered along the chain shown (N, C = ends). [ ]: non-standard residue; d: D form.
Reported inhibition at 50 µM by item:
Your answer is read as %, so omit the unit and give the number.

CC(C)(C)OC(=O)N[C@@H](Cc1ccc(O)cc1)C(=O)N[C@H](Cc1c[nH]c2ccccc12)C(=O)N[C@@H](CCCCNC(=O)OCc1ccccc1)C(=O)O :: 2
C[C@@H](O)[C@H](NC(=O)[C@@H]1CSSC[C@H](NC(=O)[C@H](N)Cc2ccccc2)C(=O)N[C@@H](Cc2ccc(O)cc2)C(=O)N[C@H](Cc2c[nH]c3ccccc23)C(=O)N[C@@H](CCCCN)C(=O)N1)C(N)=O [TT-232] (H-[dF]CY[dW]KCT-NH2; disulfide 2-6) :: 80
C[C@@H]1C[C@@H]([C@H](O)CC2CC(=O)NC(=O)C2)C(=O)[C@@H](C)C1 [CYCLOHEXIMIDE] :: 80
CC(C)(C)OC(=O)N[C@@H](Cc1ccc(O)cc1)C(=O)N[C@H](Cc1c[nH]c2ccccc12)C(=O)N[C@@H](CCCCNC(=O)OCc1ccccc1)C(=O)OCC1c2ccccc2-c2ccccc21 :: 7
N[C@@H](Cc1ccc(O)cc1)C(=O)N[C@H](Cc1c[nH]c2ccccc12)C(=O)O :: 11

Lab note: next compound to report on.
Task: Please indicate inhibition at 50 µM recorded for `N[C@@H](Cc1ccc(O)cc1)C(=O)N[C@H](Cc1c[nH]c2ccccc12)C(=O)N[C@@H](CCCCNC(=O)OCc1ccccc1)C(=O)O`
Output: 0
